Biological target: Muscarinic acetylcholine receptor M2 (Mus musculus) (UniProt Q9ERZ4)
Assay: In vivo determination of peripheral M2 receptor mediated tremor, cholinergic side effect
observation.type: ED50 (µmol/kg)
The reply should be a number in µmol/kg, with the unit left off.

Solved entries (count: 3):
- structure: "CCn1ncc(C2=CCCN(C)C2)n1"
  ED50 (µmol/kg): 180
- structure: "CCCCn1ncc(C2=CCCN(C)C2)n1"
  ED50 (µmol/kg): 72
- structure: "CCn1ncc(C2=CCCNC2)n1"
  ED50 (µmol/kg): 60

Here's the next entry for you.
Task item: Report ED50 on Muscarinic acetylcholine receptor M2 (Mus musculus) (UniProt Q9ERZ4) for this entry: CCN1C(=O)CC2(CCN(C)CC2)C1=O
Reply: 38

---

Target: Muscarinic acetylcholine receptor M2 (Mus musculus) (UniProt Q9ERZ4)
Experiment: In vivo determination of peripheral M2 receptor mediated salivation, cholinergic side effect
observation.type: log10 of ED50 (log10 of the value in µmol/kg)
All values: base-10 log of ED50 in µmol/kg.

- structure: "CN1CCC=C(c2cnn(C)n2)C1"
  observation.type: "log10 of ED50"
  value.measured: 0.56
- structure: "CCn1nnc(C2=CCCNC2)n1"
  observation.type: "log10 of ED50"
  value.measured: 1.61

Task item: Tell us which log10 of ED50 value is on record for CCn1ncc(C2=CCCN(C)C2)n1
Reply: 2.60

Task item: State its log10 of ED50: C[N+](C)(C)CCOC(N)=O
Reply: 2.08

Task item: Indicate its recorded log10 of ED50; the compound in question is CCN1C(=O)CC2(CCN(C)CC2)C1=O
Reply: 0.40

Task item: Provide log10 of ED50 value for the following compound: CCn1ncc(C2=CCCNC2)n1
Reply: 1.08

---

Each entry below carries its reported ED50.
Target: Muscarinic acetylcholine receptor M2 (Mus musculus)
Assay: In vivo determination of peripheral M2 receptor mediated hypothermia, cholinergic side effect
Field format: number, assumed µmol/kg, no unit text.

Guide cases for ED50, answers given:
- structure: "CCN1C(=O)CC2(CCN(C)CC2)C1=O"
  assayed.system: "Muscarinic acetylcholine receptor M2 (Mus musculus)"
  units.symbol: "µmol/kg"
  ED50: 8.6
- structure: "CCn1ncc(C2=CCCNC2)n1"
  assayed.system: "Muscarinic acetylcholine receptor M2 (Mus musculus)"
  units.symbol: "µmol/kg"
  ED50: 19
- structure: "CN1CCC=C(c2cnn(C)n2)C1"
  assayed.system: "Muscarinic acetylcholine receptor M2 (Mus musculus)"
  units.symbol: "µmol/kg"
  ED50: 5.3
- structure: "C[N+](C)(C)CCOC(N)=O"
  assayed.system: "Muscarinic acetylcholine receptor M2 (Mus musculus)"
  units.symbol: "µmol/kg"
  ED50: 90

Task item: Look up and report measured ED50 for this entry: CCCCn1ncc(C2=CCCN(C)C2)n1
Reply: 60

Task item: Using the record for CCn1nnc(C2=CCCNC2)n1 , state its measured ED50.
Reply: 78

Every entry's value here was drawn from ChEMBL document CHEMBL1127749.
